Values from paper PMC10397247

Target: T1, 4H717-bH
T1 chain: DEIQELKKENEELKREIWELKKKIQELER
Assay: two-hybrid library CCNG1;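 also: natural log of median RNA to DNA barcode read ratio; higher means stronger binding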

# Binder, interaction score
measured = [
    ("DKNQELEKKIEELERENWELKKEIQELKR [4H3354-bH]", 0.648),
    ("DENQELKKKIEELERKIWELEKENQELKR [4H1828-bH]", 0.163),
    ("DEIQELKKEIEELKRENWELKKKNQELER [4H607-bH]", 0.512),
    ("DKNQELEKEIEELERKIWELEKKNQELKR [4H3112-bH]", -0.259),
    ("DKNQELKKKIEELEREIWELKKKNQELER [4H3855-bH]", -0.607),
    ("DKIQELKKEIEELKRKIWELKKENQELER [4H2667-bH]", -0.859),
    ("DEIQELEKKNEELKREIWELEKKIQELKR [4H454-bH]", 0.664),
    ("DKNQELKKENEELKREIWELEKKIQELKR [4H3782-bH]", 0.481),
    ("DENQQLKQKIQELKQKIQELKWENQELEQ [4H1899-bN]", -0.282),
    ("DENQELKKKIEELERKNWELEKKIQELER [4H1845-bH]", 0.319),
    ("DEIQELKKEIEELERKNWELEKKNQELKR [4H568-bH]", 0.643),
    ("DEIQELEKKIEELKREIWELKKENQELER [4H331-bH]", -1.1),
    ("DEIQELKKENEELKREIWELKKKIQELER [4H717-bH]", 0.358),
    ("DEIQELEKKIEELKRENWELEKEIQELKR [4H338-bH]", 0.186),
]
